Where these numbers come from: ChEMBL document CHEMBL1201862

Tested on: SK-MEL-28
Experiment: NCI tumour cell line growth inhibition, 48 h
Calls of active or inactive are those of the source. Cut-off read from the data, not from the text of the source: active = GI50 up to about 1.1 µM and inactive = higher.
Outcomes you can answer with include only these: active, inactive

Answered examples (2):
COc1ccc2[nH]c(C(=O)N3CC(CCl)c4c3cc(N)c3ccccc43)cc2c1 (stereo not given) ... active
C=CC[P@]1(=O)O[C@H](c2ccccc2)[C@H](C)N1C ... inactive

What was the test verdict on "CC(=O)OCCOCn1c2c(c(=S)[nH]c1=O)CCC2" ?
inactive

Another compound to check: "CCOC(=O)c1nc2ccc(C(F)(F)F)cc2nc1Oc1cc(OC)c(OC)c(OC)c1"
inactive

====

Tested on: COLO 205
Assay: NCI tumour cell line growth inhibition, 48 h
Activity calls are given as the source filed them. No stated cut-off is given here; in the data, active = GI50 up to about 1.1 µM and inactive = higher.
Outcomes you can answer with include only these: label 1 (active), label 0 (inactive)

COC(=O)C(C(=O)C(=O)Nc1c(Cl)cc([N+](=O)[O-])cc1Cl)c1csc(-n2nc(C3=CCCCC3)cc2-c2ccccc2)n1 (stereo not drawn) ... label 0
COC(=O)[C@]1(CCC(C)=O)C(=O)C=CN([C@H](C)c2ccccc2)[C@@H]1Cc1ccc(OC)c(OCc2ccccc2)c1I ... label 0
C1CN2CCNCCN(CCN1)CC2 ... label 0
COc1cc2c(c(OC)c1O)-c1ccc(OC)c(=O)cc1[C@@H](NC(=O)C(F)(F)F)CC2 ... label 1
N#CC(/C(=N/NC(=O)C(=O)NN)C(=O)Nc1nc([N+](=O)[O-])cs1)c1ccc(Cl)cc1 (stereo not drawn) ... label 0
CC(C)=CCC/C(C)=C/CC/C(C)=C/CCN(C)CCO ... label 0

What was the test verdict on "N#CCCN(C(=O)Nc1ccc(NC(=O)N(CCC#N)c2ccccc2)cc1)c1ccccc1" ?
label 0

Another molecule to check: "O=S1(=O)c2ccccc2C(=NO)c2ccccc21"
label 0

====

What follows is a collection of GI50 values obtained with HCT-15.

Observe how each entry below is paired with its result.
CN(C)/N=N/c1ccc2[nH]c(=O)[nH]c2c1 ... > 100 µM
COc1cc(C2=N/C(=C/c3cccs3)C(=O)O2)cc(OC)c1OC ... > 100 µM
CCCCCCCCCCc1c2nc(c(CCCCCCCCCC)c3ccc([nH]3)c(CCCCCCCCCC)c3nc(c(CCCCCCCCCC)c4ccc1[nH]4)C=C3)C=C2 ... > 100 µM

API: value(readout=GI50, system=HCT-15) for record CCOC(=O)c1cc(C2(O)CCN(CC(C)CC)C2=O)c(-c2cc(C)no2)[nH]1 (stereo unspecified)
> 100 µM

Another compound to check: "Nc1nc(N)nc(-c2ccccc2NS(=O)(=O)c2ccc([N+](=O)[O-])cc2)n1"
> 84.5 µM

Another compound to check: "CC(C)(C)N/N=C(\Cc1occc(=O)c1O)C(=O)Nc1ccc([N+](=O)[O-])cc1[N+](=O)[O-]"
> 100 µM

====

System: SNB-75
Test: NCI tumour cell line growth inhibition, 48 h
Activity calls are given as the source filed them. Cut-off read from the data, not from the text of the source: active = GI50 up to about 1.1 µM and inactive = higher.
Outcomes you can answer with include only these: active, inactive

CCOc1ccc(NC(=O)C(=O)Nn2c(N)nnc2N)cc1 ... inactive
COc1cccc2c3ccccc3c3nc[nH]c3c12 ... inactive
O=C1C(SCCO)=C(SCCO)C(=O)c2ccccc21 ... inactive
Oc1[nH]c(Nc2ccc(Cl)cc2)nc2ncnc1-2 ... inactive
CCOC(=O)c1cc(C2(O)CCN(CC(C)CC)C2=O)c(-c2cc(C)no2)[nH]1 (stereo not given) ... inactive
CCC1=C(CC2NCCc3ccccc32)CC2c3cc(OC)c(OC)cc3CCN2C1 (stereo not given) ... active

What was the test verdict on "O=C(O)CCCCCCC[C@@H]1S[C@H]1CCCCCCO" ?
inactive

Another compound to check: "C#C[C@]1(O)CC[C@H]2[C@@H]3CCc4cc(OC(=O)c5cccc6cc7ccccc7nc56)ccc4[C@H]3CC[C@@]21C"
inactive

Another compound to check: "CN(C)CCNC(=O)c1cccc2[nH]c(-c3ccncc3)nc12"
inactive

Another compound to check: CC(C)[Si](CC1=CCCCC12C(=O)N(COCC[Si](C)(C)C)c1ccccc12)(C(C)C)C(C)C (stereo not given)
inactive

Another compound to check: "O=C(C/C(CCC(=O)N(Cc1ccccc1)Cc1ccccc1)=N/Nc1ccc([N+](=O)[O-])cc1[N+](=O)[O-])c1ccccc1"
inactive
